Hello, the source for this data is patent US8580762B2, in case you need it.

experiment: Plasma levels of Compound 2 in the xenograft study; assay type: in vivo, female nude mice; settings: female, nude, mouse, Group 3, ip 20 mg/kg tid plus 112 mg/kg/day minipump, read-out: Cmax after each of the tid ip injections

| COMPOUND | Cmax |
| --- | --- |
| CC(C)N(C[C@H]1O[C@@H](n2cnc3c(N)ncnc32)[C@H](O)[C@@H]1O)[C@H]1C[C@@H](CCc2nc3cc(C(C)(C)C)ccc3[nH]2)C1 [Compound 2] | 4200 to 5000 ng/mL |

###

compounds and their reported IC50
molecular target: DOT1L(1-416) (Homo sapiens); experiment: Determination of IC50: DOT1L(1-416) methyltransferase assay, 3H-SAM, oligonucleosome substrate, Flashplate; format: biochemical; settings: class symbols; read-out: DOT1L IC50
Sequence (Q8TEK3 1-416): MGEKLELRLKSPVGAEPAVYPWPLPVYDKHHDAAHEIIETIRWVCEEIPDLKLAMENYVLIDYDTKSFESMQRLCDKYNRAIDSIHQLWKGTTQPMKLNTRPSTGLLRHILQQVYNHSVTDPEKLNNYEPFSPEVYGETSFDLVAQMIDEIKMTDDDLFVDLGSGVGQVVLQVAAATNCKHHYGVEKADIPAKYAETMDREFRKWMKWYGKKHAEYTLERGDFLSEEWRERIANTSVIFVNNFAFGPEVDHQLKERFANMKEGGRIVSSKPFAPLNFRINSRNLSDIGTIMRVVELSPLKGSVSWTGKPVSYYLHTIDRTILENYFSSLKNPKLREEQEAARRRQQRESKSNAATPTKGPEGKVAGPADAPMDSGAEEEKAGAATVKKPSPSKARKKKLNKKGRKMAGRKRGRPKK

| COMPOUND | IC50 |
| --- | --- |
| CC(C)N(C[C@H]1O[C@@H](n2cnc3c(N)ncnc32)[C@H](O)[C@@H]1O)C1CC(CCc2nc3cc(C4(C)CC4)ccc3[nH]2)C1 (stereo partly drawn) | < 100 nM |
| CN(C[C@H]1O[C@@H](n2cnc3c(N)ncnc32)[C@H](O)[C@@H]1O)C1CC(NC(=O)Nc2ccc(C(C)(C)C)cc2)C1 (stereo partly drawn) | 10000 to 50000 nM |
| CN(C[C@H]1C[C@@H](n2ccc3c(N)ncnc32)[C@H](O)[C@@H]1O)C1CC(CCc2nc3cc(C4(C)CCC4)ccc3[nH]2)C1 (stereo partly drawn) | < 100 nM |
| CN(C[C@H]1C[C@@H](n2ccc3c(N)ncnc32)[C@H](O)[C@@H]1O)[C@H]1C[C@@H](CCc2nc3cc(OC(F)(F)F)ccc3[nH]2)C1 | < 100 nM |
| CCN(C[C@H]1O[C@@H](n2ccc3c(N)ncnc32)[C@H](O)[C@@H]1O)[C@H]1C[C@H](CCc2nc3cc(C(C)(C)C)ccc3[nH]2)C1 | < 100 nM |
| CC(C)N(C[C@@H]1C[C@@H](O)[C@H](n2ccc3c(N)ncnc32)C1)C1CC(CCc2nc3cc(Cl)c(C(F)(F)F)cc3[nH]2)C1 (stereo partly drawn) | 1000 to 10000 nM |
| CN(C[C@H]1C[C@@H](n2ccc3c(N)ncnc32)[C@H](O)[C@@H]1O)C1CC(CCc2nc3cc(OC(F)(F)F)ccc3[nH]2)C1 (stereo partly drawn) | < 100 nM |
| CC(C)(C)c1ccc2[nH]c(CCC3CC(N(C[C@H]4O[C@@H](n5cnc6c(N)ncnc65)[C@H](O)[C@@H]4O)CC(F)(F)F)C3)nc2c1 (stereo partly drawn) | 100 to 1000 nM |
| CN(C[C@H]1O[C@@H](n2cnc3c(N)ncnc32)[C@H](O)[C@@H]1O)[C@H]1C[C@H](CCc2nc3cc(C4(C#N)CC4)ccc3[nH]2)C1 | < 100 nM |
| CN(C[C@H]1O[C@@H](n2cnc3c(N)ncnc32)[C@H](O)[C@@H]1O)[C@H]1C[C@H](CCc2nc3cc(C4COC4)ccc3[nH]2)C1 | 100 to 1000 nM |
| CN(C[C@H]1O[C@@H](n2cnc3c(N)ncnc32)[C@H](O)[C@@H]1O)[C@H]1C[C@H](CCc2nc3cc(C4(C)CCC4)ccc3[nH]2)C1 | < 100 nM |
| CN(C[C@H]1O[C@@H](n2cnc3c(N)ncnc32)[C@H](O)[C@@H]1O)C1CC(CCc2nc3cc(C4(C)CCC4)ccc3[nH]2)C1 (stereo partly drawn) | < 100 nM |
